- experimental_target: Tau
- experiment_description: rat primary cortical neurons, FLIPR, 25 uM ASO
Bases are written 5' to 3'; sugars and linkages follow in the same order, as letters with counts (s phosphorothioate, o phosphodiester; PS: all linkages phosphorothioate). The collection does not say whether C is 5-methylated. l = locked nucleic acid (LNA); d = 2'-deoxy (DNA)
property: calcium oscillation score

residue_codes	experimental_target	property	observed_measurement
CATTTTACTAAAACGC (sugars l4 d8 l4, PS)	Tau	calcium oscillation score	91.6 % of control
CACCCATCAATTTGGAAAGA (sugars l3 d14 l3, PS)	Tau	calcium oscillation score	91.5 % of control
TATTATCCTTTGAGCCACAC (sugars l3 d14 l3, PS)	Tau	calcium oscillation score	77.4 % of control
ACTCTTTGAACACCCCA (sugars l2 d12 l3, PS)	Tau	calcium oscillation score	88.9 % of control
ATGATTGTGGGCTTAG (sugars l3 d10 l3, PS)	Tau	calcium oscillation score	24.4 % of control
TTCCCACAATTCCTACA (sugars l3 d12 l2, PS)	Tau	calcium oscillation score	73.4 % of control
CTCTCAAAAATCAACGC (sugars l4 d9 l4, PS)	Tau	calcium oscillation score	66.3 % of control
TCGCTTCCAGTCCC (sugars l3 d8 l3, PS)	Tau	calcium oscillation score	142 % of control
CTCAAAAATCAACGCCT (sugars l3 d10 l4, PS)	Tau	calcium oscillation score	57 % of control
AAAATATCCTTACCATCCTA (sugars l3 d14 l3, PS)	Tau	calcium oscillation score	75.5 % of control

Now examine the next entry.
Reported calcium oscillation score of GCCTTACTTTCTACTCA (sugars l2 d13 l2, PS) : 70.7 % of control

----------
calcium oscillation score: recorded values
- experimental_target: Tau
- experiment_description: rat primary cortical neurons, FLIPR, 25 uM ASO
Bases are written 5' to 3'; sugars and linkages follow in the same order, as letters with counts (s phosphorothioate, o phosphodiester; PS: all linkages phosphorothioate). The collection does not say whether C is 5-methylated. l = locked nucleic acid (LNA); d = 2'-deoxy (DNA)

Would you please look over these solved cases?
residue_codes	experimental_target	property	observed_measurement
CCATCCTAAGTCAACCA (sugars l2 d13 l2, PS)	Tau	calcium oscillation score	62.8 % of control
CATCTTCCTTTAGTTTT (sugars l4 d10 l3, PS)	Tau	calcium oscillation score	50.9 % of control
CTCTTAGCATCCACTTA (sugars l3 d12 l2, PS)	Tau	calcium oscillation score	44.5 % of control

Reported calcium oscillation score of CCGCCTTTAGTGATTACAGG (sugars l3 d14 l3, PS) : 4.03 % of control

Reported calcium oscillation score of TTTGGAAAGATGAAATTTGC (sugars l3 d14 l3, PS) : 7.77 % of control

Reported calcium oscillation score of ATTTCCAAATTCACTTTTAC (sugars llddlldddddddddldlll, PS) : 112 % of control

Reported calcium oscillation score of CTCCTGGTTTATGATGGATG (sugars l3 d14 l3, PS) : 35 % of control

Reported calcium oscillation score of CCCCACTTTTAATTAAA (sugars l4 d10 l3, PS) : 99.7 % of control

Reported calcium oscillation score of TGGATGTTGCCTAATG (sugars l3 d10 l3, PS) : 0 % of control

Reported calcium oscillation score of TCTCGCGGAAGGTC (sugars l3 d8 l3, PS) : 75.7 % of control

Origin of the recorded values: the OligoGym collection
